# System: MOLM14
# Method Summary: cell viability relative to vehicle control; higher = less cytotoxic;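 also: after 48 h exposure read by CellTiter-Glo luminescence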
# Condition Details: 10 µM; SRSF2 genotype: SRSF2 wt/wt
Attribute: cell viability

Compound | cell viability [%]
CO[C@H]1/C=C/O[C@@]2(C)Oc3c(C)c(O)c4c(O)c(c(/C=N/N5CCN(C6CCCC6)CC5)c(O)c4c3C2=O)NC(=O)/C(C)=C\C=C\[C@H](C)[C@H](O)[C@@H](C)[C@@H](O)[C@@H](C)[C@H](OC(C)=O)[C@@H]1C | 67
C[C@H]1[C@@H](O)O[C@@H]2O[C@@]3(C)CC[C@H]4[C@H](C)CC[C@@H]1[C@@]24OO3 [Dihydroartemisinin (DHA)] | 9.71
N#Cc1c(Oc2ccc(F)c(NC(=O)Cc3cccc(C(F)(F)F)c3)c2)ccc2nc(NC(=O)C3CC3)sc12 | 25.9

* * *

# Tested on: OCI-AML2
# Method Summary: cell viability relative to vehicle control; higher = less cytotoxic
# Condition Details: 10 µM; SRSF2 genotype: wt/wt
Structures can show the parent of a compound that is named as a salt.

Compound | Measure Unit | cell viability
CCCCCCCCCCCCc1ccc(S(=O)(=O)Nc2nncs2)cc1 | % | 111
CC(=O)OC1CCC2C3CCc4cc(O)ccc4C3CCC12C (centres undefined) | % | 96.1
CC(C)(NS(=O)(=O)c1ccc2c(Cl)cnc(N=C(N)N)c2c1)C(=O)O | % | 117
COc1cc(S(=O)(=O)O)ccc1O | % | 105
COC[C@H](NC(=O)c1cnc(C)s1)C(=O)N[C@@H](COC)C(=O)N[C@@H](Cc1ccccc1)C(=O)[C@@]1(C)CO1 | % | 0.17
N=C(N)N [Guanidine (Aminoformamidine) HCl] | % | 98.1
O=C(O)CC(C(=O)O)n1c(O)c(C2=c3cc(Br)ccc3=NC2=O)sc1=S (centres undefined) | % | 103
CC(C)n1nccc1-c1ncccc1COc1cccc(O)c1C=O | % | 98.3
O=C(Nc1ccc2c(O)cc(S(=O)(=O)O)cc2c1)Nc1ccc2c(O)cc(S(=O)(=O)O)cc2c1 [AMI-1, free acid] | % | 112

* * *

# Tested on: K562
# Method Summary: cell viability relative to vehicle control; higher = less cytotoxic
# Condition Details: 10 µM; SRSF2 genotype: SRSF2 wt/wt
Measured Quantity: cell viability (%)

Compound | Measure Unit | Recorded Result
CC1=C(/C=C/C(C)=C/C=C/C(C)=C/C(=O)O)C(C)(C)CCC1 [All-trans Retinoic Acid (Tretinoin)] | % | 93
CCOC(=O)/C=C\C(=O)OCC [Diethylmaleate] | % | 99.8
O=C(O)c1c[nH]c2ccccc12 | % | 100
OC[C@H]1O[C@@](CO)(O[C@H]2O[C@H](CO)[C@@H](O)[C@H](O)[C@H]2O)[C@@H](O[C@H]2O[C@H](CO)[C@@H](O)[C@H](O)[C@H]2O)[C@@H]1O | % | 104
O=C1CCCC(=O)C1C(=O)c1ccc(C(F)(F)F)cc1[N+](=O)[O-] | % | 108
CCCN(CCC)C(=O)C1=Cc2ccc(-c3ccc(C(=O)N4CCCC4)cc3)cc2N=C(N)C1 | % | 38.8
O=C(Nc1ccc([N+](=O)[O-])cc1O)Nc1ccccc1Br | % | 33.9
OC1CCC(Oc2cccc3cnc(Nc4ccc5nc[nH]c5c4)nc23)CC1 (stereo not drawn) | % | 32.7

* * *

# Tested on: MOLM14
# Method Summary: cell viability relative to vehicle control; higher = less cytotoxic
# Condition Details: 10 µM; SRSF2 genotype: SRSF2 wt/wt
Structures can show the parent of a compound that is named as a salt.

Compound | cell viability
COc1cc(C(C)=O)ccc1O | 103%
Cn1c(=O)c(F)c(Nc2ccc(I)cc2F)c2c(=O)n(C[C@@H](O)CO)cnc21 | 29.8%
CCCCc1oc2ccccc2c1C(=O)c1cc(I)c(OCCN(CC)CC)c(I)c1 [Amiodarone HCl] | 62.7%
O=C1NC(=O)/C(=C/c2cccc(C(F)(F)F)c2)S1 | 102%
Cc1cc(O)c(C(=O)CCC(C)C)c(=O)o1 | 99.5%
N#Cc1cnc(Nc2cc(NC[C@H]3CNCCO3)c(C(F)(F)F)cn2)cn1 | 10.3%
O=C(O)c1ccc(Br)c(O)c1 [4-Bromo-3-hydroxybenzoic acid] | 107%
CCOC(=O)c1cccc(N)c1 [Ethyl 3-Aminobenzoate methanesulfonate] | 96.5%
COc1ccc(C2CC(=O)c3c(O)cc(OC4OC(COC5OC(C)C(O)C(O)C5O)C(O)C(O)C4O)cc3O2)cc1OC (centres undefined) | 107%

* * *

# Tested on: OCI-AML2
# Method Summary: cell viability relative to vehicle control; higher = less cytotoxic
# Condition Details: 10 µM; SRSF2 genotype: wt/wt
Where a name gives a salt, the structure may show the parent alone.
Attribute: cell viability

Compound | cell viability
Cc1cc2c3c([n+](C)c4ccc(F)cc4c3c1)-c1cc(F)ccc1N2C [RHPS 4 methosulfate] | 8.9%
CC(C)=CCC/C(C)=C\CO | 109%
CC[C@H]1[C@@H](O)[C@@H]2[C@H](CC[C@]3(C)[C@@H]([C@H](C)CCC(=O)O)CC[C@@H]23)[C@@]2(C)CC[C@@H](O)C[C@@H]12 | 110%
C[C@]12C=CC(=O)N[C@@H]1CC[C@@H]1[C@@H]2CC[C@]2(C)[C@@H](C(=O)Nc3cc(C(F)(F)F)ccc3C(F)(F)F)CC[C@@H]12 [Dutasteride] | 94.7%
O=C(Nc1ccc2c(O)cc(S(=O)(=O)O)cc2c1)Nc1ccc2c(O)cc(S(=O)(=O)O)cc2c1 | 111%
O=C(c1cc(Cc2n[nH]c(=O)c3ccccc23)ccc1F)N1CCN(C(=O)C2CC2)CC1 | 58%
CCCCOc1nc(N)c2c(n1)N(Cc1cccc(CN3CCCC3)c1)CC(=O)N2 | 90.6%
CCn1cc(C(=O)O)c(=O)c2cc(F)c(N3CCNCC3)cc21 | 91.5%
COc1cc(F)c(C(C)C)cc1-c1ccc(C(F)(F)F)cc1CN1C(=O)O[C@H](c2cc(C(F)(F)F)cc(C(F)(F)F)c2)[C@@H]1C | 102%
Nc1nonc1C(=Nc1ccc(F)c(Cl)c1)NO | 111%
COc1cccc2c1c(O)c(C(=O)N(C)c1ccc(C(F)(F)F)cc1)c(=O)n2C | 110%
CC(=O)Oc1ccc(C(=C2CCCCC2)c2ccc(OC(C)=O)cc2)cc1 | 96.9%
CN(C(Cc1ccc(OS(=O)(=O)c2cccc3cnccc23)cc1)C(=O)N1CCN(c2ccccc2)CC1)S(=O)(=O)c1cccc2cnccc12 (stereo unspecified) | 76.4%
Cc1[nH]c(/C=C2\C(=O)Nc3ccccc32)c(C)c1CCC(=O)O [Orantinib (TSU-68, SU6668)] | 84.2%
Cc1nn(C)c(COc2ccc(N3CCN(S(=O)(=O)N(C)C)CC3)cc2)c1-c1cccc2c(CCCOc3cccc4ccccc34)c(C(=O)O)n(CCN3CCOCC3)c12 | 103%
CCCCCCCCCCCC(=O)O | 96.1%
Cc1cnc(C(=O)NCCc2ccc(S(=O)(=O)NC(=O)NC3CCCCC3)cc2)cn1 [Glipizide (Glucotrol)] | 97.4%
COc1ccccc1N1CCN(CCCNc2cc(=O)n(C)c(=O)n2C)CC1 [Urapidil hydrochloride] | 95.2%
CCCC(CCC)C(=O)O [Valproic acid sodium salt (Sodium valproate)] | 95.9%
Cn1c(=O)c(F)c(Nc2ccc(I)cc2F)c2c(=O)n(C[C@@H](O)CO)cnc21 | 46.9%
O=C(O)Cc1cccc2ccccc12 [1-Naphthaleneacetic acid] | 97.4%
CCn1c(=O)c2c(nc(/C=C/c3ccc(OC)c(OC)c3)n2C)n(CC)c1=O | 92.4%
CC1=C(/C=C/C(C)=C/C=C/C(C)=C/C(=O)O)C(C)(C)CCC1 [All-trans Retinoic Acid (Tretinoin)] | 37.4%
CN(C)CCC(c1ccc(Br)cc1)c1ccccn1 (stereo unspecified) [Brompheniramine hydrogen maleate] | 109%
Cc1c(NC(=O)c2ccc(C(C)(C)C)cc2)cccc1-c1cn(C)c(=O)c(Nc2ccc(C(=O)N3CCOCC3)cc2)n1 | 87.4%
CC(C)c1c(-c2ccccc2)nc2c(C#N)c[nH]n2c1=O | 101%
N#Cc1ccc(C(c2ccc(C#N)cc2)n2cncn2)cc1 | 90.1%
O=c1cc(N2CCOCC2)oc2c1ccc1ccccc12 | 96.7%
C[C@@H](O[C@H]1OCCN(Cc2n[nH]c(=O)[nH]2)[C@H]1c1ccc(F)cc1)c1cc(C(F)(F)F)cc(C(F)(F)F)c1 [Aprepitant (MK-0869)] | 56.8%
CC[C@H](NC(=O)[C@H](C)NC)C(=O)N1C[C@@H](O)C[C@H]1Cc1c(-c2[nH]c3cc(F)ccc3c2C[C@@H]2C[C@H](O)CN2C(=O)[C@H](CC)NC(=O)[C@H](C)NC)[nH]c2cc(F)ccc12 | 107%
COC(=O)[C@@H]1[C@H]2C[C@H]3c4[nH]c5ccccc5c4CCN3C[C@@H]2CC[C@@H]1O [Yohimbine hydrochloride (Antagonil)] | 96.1%

Sourced from the supplement of paper PMC10981050
